Data provenance is ChEMBL document CHEMBL3616436.

test system: Vaccinia virus; test: Antiviral activity against Human Vaccinia virus ATCC VR-1549 infected in African green monkey Vero 76 cells assessed as reduction of virus-plaque formation after 3 days by crystal violet staining; format: functional, organism-based; details: Orthopoxvirus vaccinia, ATCC VR-1549, Vero, 72 h
TEST_READOUT: EC50

| LINE_NOTATION | OBS_VALUE |
| --- | --- |
| COc1cccc(NC(=S)Nc2cccc(C(F)(F)F)c2)c1 | > 20 µM |
| C=C(C)CNC(=S)Nc1cccc(C(F)(F)F)c1 | > 100 µM |
| FC(F)(F)c1cccc(NC(=S)Nc2ccccc2)c1 | > 39 µM |
| FC(F)(F)c1cccc(NC(S)=NCCN2CCOCC2)c1 | > 100 µM |
| Fc1cccc(NC(=S)Nc2cccc(C(F)(F)F)c2)c1 | > 20 µM |
| FC(F)(F)c1cccc(NC(=S)NCCc2ccccc2)c1 | > 46 µM |
| CCCC[C@H]1CC[C@H](c2ccc(NC(=S)Nc3cccc(C(F)(F)F)c3)cc2)CC1 | > 17 µM |
